Tested target: GSK3β (Homo sapiens)
Test: biochemical
Result type: pIC50
By convention, pIC50 is the negative base-10 log of a molar concentration.

Example entries begin here.
CC1(C)CC(=O)C2=C(C1)Nc1n[nH]c(C3CC(F)(F)C3)c1C2(C)c1ccccc1 (racemic) [Compound 120]: 6.88
CC(C)c1[nH]nc2c1C(C)(c1ccccc1)C1=C(CC(C)(C)CC1=O)N2 (stereo not shown) [Compound 296]: 7.12
CCC1(c2ccccc2)C2=C(CC(C)(C)CC2=O)Nc2n[nH]c(CC(C)(C)C)c21 (stereo not shown) [Compound 274]: 7.00

# returns recorded pIC50 (system: GSK3β (Homo sapiens)) for CC[C@@]1(c2cccc(Cl)c2)C2=C(CC(C)(C)CC2=O)Nc2n[nH]cc21 (stereo in doubt) [Compound 219]
7.10

Item CCC(C)c1[nH]nc2c1C(C)(c1ccccc1)C1=C(CC(C)(C)CC1=O)N2 (stereo not shown) [Compound 299] with GSK3β (Homo sapiens) - pIC50?
7.05

Record lookup: for GSK3β (Homo sapiens), what pIC50 belongs to CC[C@@]1(c2cc(Cl)cc(Cl)c2)C2=C(CC(C)(C)CC2=O)Nc2n[nH]cc21 (stereo in doubt) [Compound 221] ?
6.03

Param readout = pIC50; param system = GSK3β (Homo sapiens); param query = CC1(C)CC(=O)C2=C(C1)Nc1n[nH]c(C3CC(F)(F)C3)c1C2(C)c1cccc(C(F)(F)F)c1 (racemic) [Compound 247] ; response: value
6.48

For the record CCC(C)(C)Cc1[nH]nc2c1[C@@](C)(c1ccccc1)C1=C(CC(C)(C)CC1=O)N2 (stereo in doubt) [Compound 292] , what value of pIC50 is listed for GSK3β (Homo sapiens)?
5.52

Please tell me: pIC50 of CC(C)c1[nH]nc2c1[C@](C)(c1ccccc1Cl)C1=C(CC(C)(C)CC1=O)N2 (stereo in doubt) [Compound 316] , system GSK3β (Homo sapiens)?
6.15

---

Tested target: GSK3β (Homo sapiens, UniProt P49841)
Sequence (P49841 whole entry): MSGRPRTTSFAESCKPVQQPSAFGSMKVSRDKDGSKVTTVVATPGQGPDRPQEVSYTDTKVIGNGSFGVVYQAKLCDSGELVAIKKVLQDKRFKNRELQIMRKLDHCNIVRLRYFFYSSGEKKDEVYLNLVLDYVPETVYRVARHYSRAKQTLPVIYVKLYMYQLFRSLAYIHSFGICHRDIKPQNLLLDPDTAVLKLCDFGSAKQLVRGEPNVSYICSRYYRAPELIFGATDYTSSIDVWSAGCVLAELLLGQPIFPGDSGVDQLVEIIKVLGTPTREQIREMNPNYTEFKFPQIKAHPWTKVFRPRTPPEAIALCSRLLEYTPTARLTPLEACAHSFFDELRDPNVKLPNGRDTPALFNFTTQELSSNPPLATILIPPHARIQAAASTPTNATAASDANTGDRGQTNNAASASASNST
Assay conditions: Caliper assay; GSK3β over GSK3α
Result type: GSK3β fold selectivity (fold)
Numeric only. Scale: fold

The cases that follow already have their GSK3β fold selectivity on record.
CC(C)c1[nH]nc2c1[C@@]1(CCc3ccccc31)C1=C(CC(C)(C)CC1=O)N2 (stereo in doubt): 5.1
CC(C)(C)Cc1[nH]nc2c1[C@](C)(c1ccccc1)C1=C(CC(C)(C)CC1=O)N2 (stereo in doubt): 14.3

# get_value(readout= GSK3β fold selectivity, system= GSK3β (Homo sapiens, UniProt P49841)) for CC(C)(C)Cc1[nH]nc2c1[C@@]1(CCc3cc(F)ccc31)C1=C(CC(C)(C)CC1=O)N2 (stereo in doubt)
22.6

Please tell me: GSK3β fold selectivity of CC(C)c1[nH]nc2c1[C@](C)(c1ccccc1F)C1=C(CC(C)(C)CC1=O)N2 (stereo in doubt) , system GSK3β (Homo sapiens, UniProt P49841)?
5.8

API: value(readout=GSK3β fold selectivity, system=GSK3β (Homo sapiens, UniProt P49841)) for record CCC(C)(C)Cc1[nH]nc2c1[C@]1(CCc3cc(F)ccc31)C1=C(CC(C)(C)CC1=O)N2 (stereo in doubt)
6.1

Short answer please: GSK3β fold selectivity, GSK3β (Homo sapiens, UniProt P49841), entry CN1C(=O)C2(C3=C(CC(C)(C)CC3=O)Nc3n[nH]c(CC(C)(C)C)c32)c2ccccc21 (stereo not shown)
8.8

Return GSK3β fold selectivity measured with GSK3β (Homo sapiens, UniProt P49841) given this compound: CC(C)(C)Cc1[nH]nc2c1C1(CCc3ccccc31)C1=C(CC(C)(C)CC1=O)N2 (racemic)
20.5

Values compiled from patent US20160375006A1.
